The reported measurements were obtained from patent US12187723B2.

// reported pIC50 per item
ASSAYED_SYSTEM: human TLR8 (Homo sapiens)
Sequence (Q9NR97 27-1041): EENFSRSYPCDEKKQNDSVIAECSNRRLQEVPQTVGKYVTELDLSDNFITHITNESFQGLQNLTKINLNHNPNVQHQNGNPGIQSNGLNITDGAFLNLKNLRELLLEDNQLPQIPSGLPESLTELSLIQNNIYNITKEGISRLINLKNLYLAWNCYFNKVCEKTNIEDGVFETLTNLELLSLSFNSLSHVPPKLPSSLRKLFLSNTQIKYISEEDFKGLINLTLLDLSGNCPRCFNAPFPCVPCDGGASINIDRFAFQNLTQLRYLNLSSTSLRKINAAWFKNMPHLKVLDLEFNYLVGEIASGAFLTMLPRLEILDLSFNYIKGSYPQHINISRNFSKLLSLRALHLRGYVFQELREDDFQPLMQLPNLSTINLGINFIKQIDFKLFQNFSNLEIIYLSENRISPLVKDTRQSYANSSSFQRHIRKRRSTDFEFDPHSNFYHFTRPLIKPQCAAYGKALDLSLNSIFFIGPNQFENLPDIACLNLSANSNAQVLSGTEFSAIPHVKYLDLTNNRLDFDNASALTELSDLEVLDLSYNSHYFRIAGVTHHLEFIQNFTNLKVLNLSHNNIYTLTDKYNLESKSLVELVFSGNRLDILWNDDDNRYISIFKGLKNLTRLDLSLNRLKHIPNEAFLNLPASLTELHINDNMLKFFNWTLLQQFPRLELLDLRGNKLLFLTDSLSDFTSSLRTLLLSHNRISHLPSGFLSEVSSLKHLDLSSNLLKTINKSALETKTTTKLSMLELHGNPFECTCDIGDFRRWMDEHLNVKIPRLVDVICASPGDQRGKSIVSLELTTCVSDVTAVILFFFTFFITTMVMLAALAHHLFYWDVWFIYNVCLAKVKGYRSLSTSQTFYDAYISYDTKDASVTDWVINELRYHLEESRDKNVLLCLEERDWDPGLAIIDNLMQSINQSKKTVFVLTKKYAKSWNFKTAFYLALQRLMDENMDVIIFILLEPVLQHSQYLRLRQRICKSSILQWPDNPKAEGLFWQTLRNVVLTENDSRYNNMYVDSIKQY
RUN_DESCRIPTION: TLR8 inhibition reporter assay (HEK-Blue SEAP)
PARTICULARS: HEK-Blue cells overexpressing human TLR8, R848 15.9 μM, 22 hour incubation
The value called pIC50 is obtained by taking minus log10 of the concentration in mol/L.

Example compounds with recorded pIC50:
{"COMPOUND": "Cc1cc2c(cc1-c1cc(C)c3ncnn3c1)[nH]c(=O)n2[C@H]1CC[C@@H](NC2CCOCC2)CC1", "READOUT_VALUE": 8.51}
{"COMPOUND": "COc1cc(-c2ccc3c(c2)[nH]c(=O)n3C2CCN(CC3CC3)CC2)cn2ncnc12", "READOUT_VALUE": 5.81}
{"COMPOUND": "Cc1cc2c(cc1-c1cc(C)c3ncnn3c1)[nH]c(=O)n2[C@H]1CC[C@H](N)CC1", "READOUT_VALUE": 7.48}

Query: Quick check: pIC50 on human TLR8 (Homo sapiens), item COc1cc(-c2cc3[nH]c(=O)n(C4CCN(C)CC4)c3cc2C)cn2ncnc12 ?
Reply: 7.27

Query: Write down the reported pIC50 of COc1ncc(CN2CCC[C@H](n3c(=O)[nH]c4cc(-c5cc(C)c6ncnn6c5)c(C)cc43)C2)cn1 , test system: human TLR8 (Homo sapiens).
Reply: 7.43

Query: Item: COc1cc(-c2cc3[nH]c(=O)n(C4CCN(CC(C)C)CC4)c3cc2C(C)C)cn2ncnc12 Test system: human TLR8 (Homo sapiens) Read-out: pIC50 Value: ?
Reply: 8.01

Query: Enter reported pIC50 observed with human TLR8 (Homo sapiens) for COc1cc(-c2cc3[nH]c(=O)n([C@@H]4CCCN(C5CCOC5)C4)c3cc2C(C)C)cn2ncnc12 (some centres unmarked) [Example 217]
Reply: 8.27

Query: Given the entry Cc1c(-c2cc3[nH]c(=O)n(C4CCC(N5CCCC(F)C5)CC4)c3cc2C(C)C)cn2ncnc2c1C (centres unmarked) [Example 274] , what pIC50 was observed with human TLR8 (Homo sapiens)?
Reply: 8.96

====

We begin with a simple list: items and their reported pIC50.
ASSAYED_SYSTEM: human TLR8 (Homo sapiens, UniProt Q9NR97)
RUN_DESCRIPTION: TLR8 inhibition reporter assay (HEK-Blue SEAP)
PARTICULARS: HEK-Blue cells overexpressing human TLR8, R848 15.9 μM, 22 hour incubation
Keep it numeric: pIC50 is minus log10 of the concentration in mol/L.

Below, each entry is followed by its recorded pIC50 result.
{"MOLECULE": "CCN[C@H]1CC[C@@H](n2c(=O)[nH]c3cc(-c4cn5ncnc5c(C)c4C)c(C(C)C)cc32)CC1", "pIC50": 8.51}
{"MOLECULE": "Cc1cc2c(cc1-c1cc(C)c3ncnn3c1)[nH]c(=O)n2[C@H]1CC[C@@H](NCC(C)(C)C)CC1", "pIC50": 9.21}
{"MOLECULE": "COc1cc(-c2cc3[nH]c(=O)n([C@H]4CC[C@@H](NC5CCOCC5)CC4)c3cc2C(C)C)cn2ncnc12", "pIC50": 9.32}

Query: Entry COc1cc(-c2cc3[nH]c(=O)n(C4CCN(C(=O)CN(C)C)CC4)c3cc2C)cn2ncnc12 , system human TLR8 (Homo sapiens, UniProt Q9NR97): what pIC50 was measured?
Reply: 6.76

Query: Under human TLR8 (Homo sapiens, UniProt Q9NR97): pIC50 value of COc1cc(-c2cc3[nH]c(=O)n(C4CCC(N5CC6(COC6)C5)CC4)c3cc2C(C)C)cn2ncnc12 (stereo not shown) ?
Reply: 8.47

Query: # returns recorded pIC50 (system: human TLR8 (Homo sapiens, UniProt Q9NR97)) for COCCN1CCC[C@@H](n2c(=O)[nH]c3cc(-c4cc(OC)c5ncnn5c4)c(C)cc32)C1
Reply: 7.22

Query: # get_value(readout= pIC50, system= human TLR8 (Homo sapiens, UniProt Q9NR97)) for CCN[C@H]1CC[C@@H](n2c(=O)[nH]c3cc(-c4cc(C)c5ncnn5c4)c(C)cc32)CC1
Reply: 7.88

====

ASSAYED_SYSTEM: human TLR7 (Homo sapiens, UniProt Q9NYK1)
Construct: host or cells: HEK-Blue cells
Sequence (Q9NYK1 27-1049): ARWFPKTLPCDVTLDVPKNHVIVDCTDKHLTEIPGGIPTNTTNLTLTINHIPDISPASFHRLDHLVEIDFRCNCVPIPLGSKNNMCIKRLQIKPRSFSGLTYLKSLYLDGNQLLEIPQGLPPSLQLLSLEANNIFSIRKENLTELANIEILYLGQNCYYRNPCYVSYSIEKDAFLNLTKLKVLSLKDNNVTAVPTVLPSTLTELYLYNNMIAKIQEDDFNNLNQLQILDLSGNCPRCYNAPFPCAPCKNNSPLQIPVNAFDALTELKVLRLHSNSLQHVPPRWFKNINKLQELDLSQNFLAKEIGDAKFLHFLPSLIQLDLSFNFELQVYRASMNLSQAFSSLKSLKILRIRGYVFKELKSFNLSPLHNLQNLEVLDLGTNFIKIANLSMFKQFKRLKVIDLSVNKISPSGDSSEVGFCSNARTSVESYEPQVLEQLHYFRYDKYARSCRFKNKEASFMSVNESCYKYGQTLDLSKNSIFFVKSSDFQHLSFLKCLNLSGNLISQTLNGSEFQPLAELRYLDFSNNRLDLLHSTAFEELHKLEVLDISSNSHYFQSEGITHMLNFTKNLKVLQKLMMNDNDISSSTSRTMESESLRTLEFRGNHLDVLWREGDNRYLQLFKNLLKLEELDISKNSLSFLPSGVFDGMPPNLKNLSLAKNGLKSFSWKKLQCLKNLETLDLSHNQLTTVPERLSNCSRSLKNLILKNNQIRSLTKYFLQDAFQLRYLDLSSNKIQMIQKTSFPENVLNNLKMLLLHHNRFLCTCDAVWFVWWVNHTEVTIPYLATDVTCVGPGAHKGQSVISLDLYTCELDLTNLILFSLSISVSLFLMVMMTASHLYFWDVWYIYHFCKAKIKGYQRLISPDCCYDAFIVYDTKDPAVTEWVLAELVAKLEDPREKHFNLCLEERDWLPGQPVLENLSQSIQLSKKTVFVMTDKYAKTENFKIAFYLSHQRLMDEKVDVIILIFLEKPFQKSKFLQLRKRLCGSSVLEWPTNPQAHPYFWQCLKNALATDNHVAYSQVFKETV
RUN_DESCRIPTION: TLR7 inhibition reporter assay (HEK-Blue SEAP)
Assay type: cell-based
PARTICULARS: HEK-Blue cells overexpressing human TLR7, gardiquimod 7.5 μM, 22 hour incubation
RECORDED_ENDPOINT: pIC50
Worth noting: pIC50 values are minus log10 of concentrations stated in mol/L.

Example compounds with recorded pIC50:
{"COMPOUND": "Cc1c(-c2cc3[nH]c(=O)n(C4CCC(N5CCC(F)(F)CC5)CC4)c3cc2C(C)C)cn2ncnc2c1C (single isomer, unassigned) [Example 276]", "ASSAYED_SYSTEM": "human TLR7 (Homo sapiens, UniProt Q9NYK1)", "RECORDED_ENDPOINT": "pIC50", "READOUT_VALUE": 7.21}
{"COMPOUND": "COCCN1CCC(n2c(=O)[nH]c3cc(-c4cc(OC)c5ncnn5c4)c(C(C)C)cc32)CC1", "ASSAYED_SYSTEM": "human TLR7 (Homo sapiens, UniProt Q9NYK1)", "RECORDED_ENDPOINT": "pIC50", "READOUT_VALUE": 7.77}
{"COMPOUND": "CCCN1CCC[C@@H](n2c(=O)[nH]c3cc(-c4cc(OC)c5ncnn5c4)c(C(F)(F)F)cc32)C1", "ASSAYED_SYSTEM": "human TLR7 (Homo sapiens, UniProt Q9NYK1)", "RECORDED_ENDPOINT": "pIC50", "READOUT_VALUE": 7.47}
{"COMPOUND": "COc1cc(-c2cc3[nH]c(=O)n([C@@H]4CCCN(CCC(F)(F)F)C4)c3cc2C)cn2ncnc12", "ASSAYED_SYSTEM": "human TLR7 (Homo sapiens, UniProt Q9NYK1)", "RECORDED_ENDPOINT": "pIC50", "READOUT_VALUE": 6.38}

Now look at this one.
Query: # input compound: Cc1cc2c(cc1-c1cc(C)c3ncnn3c1)[nH]c(=O)n2[C@@H]1CCCN(CCC(C)(C)C)C1 ; wanted: its pIC50
Reply: 6.98
